ASSAYED SYSTEM: Amyloid-beta precursor protein (Homo sapiens)
Sequence (P05067 whole entry): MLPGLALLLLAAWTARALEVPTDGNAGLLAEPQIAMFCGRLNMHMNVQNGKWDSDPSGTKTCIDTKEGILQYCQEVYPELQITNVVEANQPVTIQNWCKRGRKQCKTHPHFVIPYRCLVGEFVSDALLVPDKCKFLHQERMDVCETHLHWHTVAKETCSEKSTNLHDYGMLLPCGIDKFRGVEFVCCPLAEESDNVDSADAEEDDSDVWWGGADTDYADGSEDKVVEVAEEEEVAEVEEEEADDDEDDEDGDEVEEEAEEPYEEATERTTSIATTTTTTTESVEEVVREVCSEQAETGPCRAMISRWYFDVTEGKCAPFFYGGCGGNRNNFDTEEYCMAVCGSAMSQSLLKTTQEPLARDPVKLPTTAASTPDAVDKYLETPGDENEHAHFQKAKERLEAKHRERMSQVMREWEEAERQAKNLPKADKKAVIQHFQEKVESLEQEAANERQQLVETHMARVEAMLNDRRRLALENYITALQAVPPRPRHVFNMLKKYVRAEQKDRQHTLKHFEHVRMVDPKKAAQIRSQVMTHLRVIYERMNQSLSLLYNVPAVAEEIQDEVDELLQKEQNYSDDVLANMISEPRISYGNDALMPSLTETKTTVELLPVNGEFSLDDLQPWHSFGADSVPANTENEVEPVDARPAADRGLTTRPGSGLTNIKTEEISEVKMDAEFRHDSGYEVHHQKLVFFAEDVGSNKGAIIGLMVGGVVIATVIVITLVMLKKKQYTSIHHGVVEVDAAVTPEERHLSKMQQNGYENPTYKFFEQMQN
PROTOCOL DESCRIPTION: Displacement of [3H]PiB from human amyloid beta (1-42) at 100 nM after 180 mins by liquid scintillation counter
READOUT TYPE: pKi
Reminder that pKi means the negative base-10 logarithm of the concentration expressed in mol/L.

// query Form entry - test system: Amyloid-beta precursor protein (Homo sapiens); read-out: pKi; compound: CNc1ccc(-c2cn3c(n2)sc2cc(OC)ccc23)cc1
// result 8.24

###

Test system: Brain
PROTOCOL DESCRIPTION: Drug uptake in Balb-C mouse brain at 4-6 MBq after 30 mins by gamma counting
Type: ADME, tissue-based
MEASUREMENT PARAMETERS: in vivo, 0.5 h
Give Drug uptake for every item shown.
Write it as a number; the unit % ID/g goes unstated.

// query If you can, please state the reported Drug uptake value of COc1ccc2c(c1)sc1nc(-c3ccc(N4CCCC4)cc3)cn12 .
// result 0.7

// query What do you get for COc1ccc2c(c1)sc1nc(-c3ccc(N(C)C)cc3)cn12 ?
// result 0.7

// query What do you get for CNc1ccc(-c2cn3c(n2)sc2cc(OC)ccc23)cc1 ?
// result 0.7

// query What do you get for CCN(CC)c1ccc(-c2cn3c(n2)sc2cc(OC)ccc23)cc1 ?
// result 0.7

// query What do you get for CNc1ccc(-c2cn3c(n2)sc2cc(O)ccc23)cc1 ?
// result 0.7

###

ASSAYED SYSTEM: Amyloid-beta precursor protein (Homo sapiens)
PROTOCOL DESCRIPTION: Displacement of [3H]PiB from human amyloid beta (1-40) at 100 nM after 180 mins by liquid scintillation counter
READOUT TYPE: inhibition (%)
Write it as a number; the unit % goes unstated.

// query If you can, please state the reported inhibition value of Oc1ccc2c(c1)sc1nc(-c3ccc(N4CCCC4)cc3)cn12 .
// result 91

// query What do you get for CN(C)c1ccc(-c2cn3c(n2)sc2cc(O)ccc23)cc1 ?
// result 85

// query What do you get for CNc1ccc(-c2cn3c(n2)sc2cc(O)ccc23)cc1 ?
// result 46

// query What do you get for CNc1ccc(-c2nc3ccc(O)cc3s2)cc1 ?
// result 88

// query What do you get for CCN(CC)c1ccc(-c2cn3c(n2)sc2cc(O)ccc23)cc1 ?
// result 79

// query What do you get for CCN(CC)c1ccc(-c2cn3c(n2)sc2cc(OC)ccc23)cc1 ?
// result 79

###

PROTOCOL DESCRIPTION: Drug uptake in Balb-C mouse brain assessed as compound remaining at 4-6 MBq after 10 mins by gamma counting
Type: ADME, tissue-based
MEASUREMENT PARAMETERS: read-out: Drug uptake
READOUT TYPE: remaining at 10 min (%)
Write it as a number; the unit % goes unstated.

// query If you can, please state the reported remaining at 10 min value of COc1ccc2c(c1)sc1nc(-c3ccc(N[11CH3])cc3)cn12 .
// result 95

###

PROTOCOL DESCRIPTION: Drug uptake in Balb-C mouse blood assessed as compound remaining at 4-6 MBq after 30 mins by gamma counting
Format: ADME, tissue-based
MEASUREMENT PARAMETERS: read-out: Drug uptake
READOUT TYPE: remaining at 0.5 h (%)
Write it as a number; the unit % goes unstated.

// query If you can, please state the reported remaining at 0.5 h value of COc1ccc2c(c1)sc1nc(-c3ccc(N[11CH3])cc3)cn12 .
// result 7
